Catalogue of pKi values
target: muscarinic receptors of the cerebral cortex (Rattus norvegicus, UniProt P08482); construct: displacement of ^3H-pirenzepine from cerebral cortex homogenate; from tissue; host or cells: rat cerebral cortex homogenate; assay: Antimuscarinic activity (in vitro binding studies): displacement of 3H-pirenzepine from cerebral cortex homogenate; parameters: species or system male CD-COOBBS rats
Just so you know, pKi here is -log10 of the concentration in molar units; reply with that number alone.

Solved entries (count: 2):
- compound: "CC(=N)N1C2CC(OC(=O)C(CO)c3ccccc3)CC1C1OC12 (single isomer, unassigned; (-)) [Compound 65, (-)-N-iminoethyl-norscopolamine]"
  experimental-target: "muscarinic receptors of the cerebral cortex (Rattus norvegicus, UniProt P08482)"
  pKi: 8.70
- compound: "CC(=N)N1C2CCC1CC(OC(=O)C(CO)c1ccccc1)C2 (racemic)"
  experimental-target: "muscarinic receptors of the cerebral cortex (Rattus norvegicus, UniProt P08482)"
  pKi: 8.47

Consider now this further compound.
### Prompt Under muscarinic receptors of the cerebral cortex (Rattus norvegicus, UniProt P08482): report pKi of N=C(N)N1C2CCC1CC(OC(=O)C(CO)c1ccccc1)C2 (racemic) .
### Response 8.15

----------
Target: muscarinic receptors of the cerebral cortex (Rattus norvegicus, UniProt P08482)
Construct: displacement of ^3H-pirenzepine from cerebral cortex homogenate; from tissue; host or cells: rat cerebral cortex homogenate
Sequence (P08482 1-460): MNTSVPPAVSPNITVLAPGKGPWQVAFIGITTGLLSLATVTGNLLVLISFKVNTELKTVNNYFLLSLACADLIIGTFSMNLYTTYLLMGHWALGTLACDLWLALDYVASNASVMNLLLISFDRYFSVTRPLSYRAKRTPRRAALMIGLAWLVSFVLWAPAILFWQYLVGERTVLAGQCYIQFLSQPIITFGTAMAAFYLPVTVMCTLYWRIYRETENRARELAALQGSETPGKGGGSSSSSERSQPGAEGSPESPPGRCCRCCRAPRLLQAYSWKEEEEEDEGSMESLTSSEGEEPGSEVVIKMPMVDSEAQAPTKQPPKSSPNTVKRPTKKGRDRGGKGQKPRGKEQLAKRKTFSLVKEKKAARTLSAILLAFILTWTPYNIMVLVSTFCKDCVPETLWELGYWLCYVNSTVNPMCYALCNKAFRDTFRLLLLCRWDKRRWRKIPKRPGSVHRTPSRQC
Assay: Antimuscarinic activity (in vitro binding studies): displacement of 3H-pirenzepine from cerebral cortex homogenate
Parameters: species or system male CD-COOBBS rats
Settings: competition against 0.5 nM 3H-pirenzepine, rat cerebral cortex homogenate, 45 min at 30° C, corrected for radioligand occupancy shift; read-out: Dissociation constants (KD) for 3H-pirenzepine binding
pKi: −log10 of the molar value. Where a name gives a salt, the structure may show the parent alone.
pKi below 8 gives no (0); pKi at or above it gives yes (1).

These solved cases illustrate the format of a correct answer.
- compound: "N=C(N)N1CCC(CC(O)(c2ccccc2)c2ccccc2)CC1 [Compound 24]"
  group: "no (0)"
- compound: "CC(=N)N1CCN(CC(O)(c2ccccc2)C2CCCCC2)CC1 (stereo not shown) [Compound 62]"
  group: "no (0)"

### Prompt # check: pKi of N=CN1CCC(OC(=O)C(c2ccccc2)c2ccccc2)CC1 [Compound 34, hydrochloride] is greater than or equal to 8
### Response yes (1)

### Prompt # check: pKi of CN=CN1CCC(=C(c2ccccc2)c2ccccc2)CC1 [Compound 28] is greater than or equal to 8
### Response no (0)

----------
Catalogue of Ki values
Biological target: muscarinic receptors of the cerebral cortex (Rattus norvegicus)
Construct: displacement of ^3H-pirenzepine from cerebral cortex homogenate; from tissue; host or cells: rat cerebral cortex homogenate
Test: Antimuscarinic activity (in vitro binding studies): displacement of 3H-pirenzepine from cerebral cortex homogenate
Design: species or system male CD-COOBBS rats
Conditions: competition against 0.5 nM 3H-pirenzepine, rat cerebral cortex homogenate, 45 min at 30° C, corrected for radioligand occupancy shift; read-out: Dissociation constants (KD) for 3H-pirenzepine binding
Experimental: Antimuscarinic activity was examined by studying the displacement of ^3H-pirenzepine from cerebral cortex homogenate according to the procedure reported below: • The cerebral cortex donors were male CD-COOBBS rats, 220-250 g body weight. […] 1 ml of the homogenate was incubated for 45 min at 30° C in the presence of a marker ligand and different concentrations of the cold ligand, conditions under which equilibrium was reached as determined by appropriate association experiments. […]
# include the unit after the value

Solved entries (count: 2):
- compound: "N=CN1CCN(CC(O)(c2ccccc2)C2CCCCC2)CC1 (stereo not drawn) [Compound 35]"
  Ki: "12 nM"
- compound: "N=C(N)N1CCC(OC(=O)C(c2ccccc2)c2ccccc2)CC1 [Compound 14]"
  Ki: "15 nM"

### Prompt Please report the measured Ki for N=C(N)N1CCN(CC(O)(c2ccccc2)C2CCCCC2)CC1 (stereo not drawn) [Compound 4]
### Response 17 nM
